# Test system: baby hamster kidney cells (BHK21)
# experiment summary: Cytotoxicity, alamarBlue, BHK-21 cells
# Assay type: cell-based
# assay setup: 2 h at 37 °C, 0.1–100 µM, alamarBlue fluorescence, non-linear fit, n ≥ 3
No end group written: not given here.
recorded metric: EC90 (effective cytotoxic concentration)
The answer should read as a number with its unit following.

{"substance": "IFKAIWSGIKSLF-NH2 [Um5]", "EC90 (effective cytotoxic concentration)": "29.12 µM"}
{"substance": "GFWGKLWEGVKNAI-NH2 [UyCT1]", "EC90 (effective cytotoxic concentration)": "52.12 µM"}

Exercise: Could you share which EC90 (effective cytotoxic concentration) value was measured for FLSTIWNGIKSLF-NH2 [D2] ?
Solution: 1130 µM

Exercise: Could you share which EC90 (effective cytotoxic concentration) value was measured for GFWGKLWKPVKKAI-NH2 [D4] ?
Solution: 2940 µM

Exercise: Could you share which EC90 (effective cytotoxic concentration) value was measured for ISQSDAILSAIWSGIKSLF-NH2 [Um2] ?
Solution: 47.12 µM

Exercise: Could you share which EC90 (effective cytotoxic concentration) value was measured for GFWGKLWEGVKSAI-NH2 [Um3] ?
Solution: 191.1 µM

Exercise: Could you share which EC90 (effective cytotoxic concentration) value was measured for FLSTIWNGIKGLL-NH2 [Uy192] ?
Solution: 155.90 µM

Exercise: Could you share which EC90 (effective cytotoxic concentration) value was measured for GFWGKLWEGVKNAIKKK-NH2 [D11] ?
Solution: 53.43 µM

---

# System: pig erythrocytes
# experiment summary: Hemolytic activity on pig erythrocytes
# Type: cell-based
# assay setup: 1 h at 37 °C, 6.25–100 µM, absorbance 570 nm, non-linear fit, n ≥ 3
# Method: The hemolytic activity of each AMP was determined using pig erythrocytes. Serial dilutions (6.25–100 µM) of each AMP were prepared, and after incubation for 1 h at 37 °C the cells were centrifuged and the absorbance of the supernatant was measured at 570 nm using an Eon Microplate Spectrophotometer (BioTek Instruments, Winooski, VT, USA). […] The percentage hemolysis was calculated using the formula 100((Apeptide–APBS)/(Atriton–APBS)). […]
No end group written: not given here.
recorded metric: HC90 (hemolytic concentration) (µM)
Just the number please, in µM, no unit attached.

# example entries with known answers
{"substance": "ILSAIWSGIKGLL-NH2 [Uy17]", "recorded metric": "HC90 (hemolytic concentration)", "val": 718.55}
{"substance": "FLSTIWNGIKGLL-NH2 [Uy192]", "recorded metric": "HC90 (hemolytic concentration)", "val": 675.22}
{"substance": "GFWGKLWEGVKNAI-NH2 [UyCT1]", "recorded metric": "HC90 (hemolytic concentration)", "val": 644.46}

Exercise: Could you share which HC90 (hemolytic concentration) value was measured for ISQSDAILSAIWSGIKSLF-NH2 [Um2] ?
Solution: 7033.22

Exercise: Could you share which HC90 (hemolytic concentration) value was measured for FPFLLSLIPSAISAIKRL-NH2 [Uy234] ?
Solution: 198.04

---

Reported values of EC90 (effective cytotoxic concentration) for individual entries
# Tested on: baby hamster kidney cells (BHK21)
# experiment summary: Cytotoxicity, alamarBlue, BHK-21 cells
# Format: cell-based
# assay setup: 2 h at 37 °C, 0.1–100 µM, alamarBlue fluorescence, non-linear fit, n ≥ 3
No end group written: not given here.
Just the number please, in µM, no unit attached.

# example entries with known answers
{"substance": "IWSAIWSGIKGLL-NH2 [UyCT5]", "val": 73.65}
{"substance": "ILSAIWSGIKSLF-NH2 [UyCT3]", "val": 46.12}

Exercise: Could you share which EC90 (effective cytotoxic concentration) value was measured for IFGAIWSGIKSLF-NH2 [D1] ?
Solution: 55.75

Exercise: Could you share which EC90 (effective cytotoxic concentration) value was measured for GFWGKLLEGVKKAI-NH2 [D5] ?
Solution: 202.90

Exercise: Could you share which EC90 (effective cytotoxic concentration) value was measured for FPFLLSLIPSAISAIKRL-NH2 [Uy234] ?
Solution: 18.86

Exercise: Could you share which EC90 (effective cytotoxic concentration) value was measured for FFSALLSGIKSLF-NH2 [Um4] ?
Solution: 261

Exercise: Could you share which EC90 (effective cytotoxic concentration) value was measured for ILSAIWSGIKGLL-NH2 [Uy17] ?
Solution: 220.80

Exercise: Could you share which EC90 (effective cytotoxic concentration) value was measured for FPFLKLSLKIPKSAIKSAIKRL-NH2 [D10] ?
Solution: 424.30

---

Reported values of CC50 at 2 h for individual entries
# experiment summary: Cytotoxicity, alamarBlue, BHK-21 cells
# Type: cell-based, hamster
# assay setup: hamster, 2 h at 37 °C, 0.1–100 µM, alamarBlue fluorescence, non-linear fit, concentration reducing viability by 50%, n ≥ 3, read-out: EC50 (effective cytotoxic concentration)
No end group written: not given here.
Just the number please, in µM, no unit attached.

# example entries with known answers
{"substance": "IFGAIWSGIKSLF-NH2 [D1]", "CC50 at 2 h, µM": 18.6}
{"substance": "GFWGKLWKPVKKAI-NH2 [D4]", "CC50 at 2 h, µM": 980}
{"substance": "FFSALLSGIKSLF-NH2 [Um4]", "CC50 at 2 h, µM": 87}
{"substance": "FLSTIWNGIKSLF-NH2 [D2]", "CC50 at 2 h, µM": 377}
{"substance": "ISQSDAILSAIWSGIKSLF-NH2 [Um2]", "CC50 at 2 h, µM": 15.7}
{"substance": "GFWGKLLEGVKKAI-NH2 [D5]", "CC50 at 2 h, µM": 67.6}
{"substance": "ILSAIWSGIKGLL-NH2 [Uy17]", "CC50 at 2 h, µM": 73.6}
{"substance": "IFKAIWSGIKSLF-NH2 [Um5]", "CC50 at 2 h, µM": 9.71}
{"substance": "IWSAIWSGIKGLL-NH2 [UyCT5]", "CC50 at 2 h, µM": 24.6}
{"substance": "FLSTIWNGIKGLL-NH2 [Uy192]", "CC50 at 2 h, µM": 52}

Exercise: Could you share which CC50 at 2 h value was measured for GFWGKLWEGVKSAI-NH2 [Um3] ?
Solution: 63.7

---

# Test system: Staphylococcus aureus (DSM2569)
# experiment summary: Growth inhibition assay (MIC), S. aureus
# Type: cell-based
# assay setup: 384-well plates, TSB, 37 °C, peptide 0.015–250 µM; growth totally inhibited; average of n ≥ 3; dash = no inhibition
No end group written: not given here.
Reported values of MIC S. aureus for individual entries
Just the number please, in µM, no unit attached.

{"substance": "ILSAIWSGIKGLL-NH2 [Uy17]", "tested on": "Staphylococcus aureus (DSM2569)", "units of measure": "µM", "val": 30}
{"substance": "GFWGKLWEGVKSAI-NH2 [Um3]", "tested on": "Staphylococcus aureus (DSM2569)", "units of measure": "µM", "val": 15}

Exercise: Could you share which MIC S. aureus value was measured for FLSTIWNGIKSLF-NH2 [D2] ?
Solution: 8

Exercise: Could you share which MIC S. aureus value was measured for FFSALLSGIKSLF-NH2 [Um4] ?
Solution: 15

Exercise: Could you share which MIC S. aureus value was measured for FLSTIWNGIKGLL-NH2 [Uy192] ?
Solution: 15

Exercise: Could you share which MIC S. aureus value was measured for IWSAIWSGIKGLL-NH2 [UyCT5] ?
Solution: 8

---

# System: pig erythrocytes
# experiment summary: Hemolytic activity on pig erythrocytes
# Type: cell-based
# assay setup: 100 µM peptide (highest tested), 1 h at 37 °C, 10% Triton X-100 = 100% hemolysis
No end group written: not given here.
recorded metric: percentage of hemolysis (%)
Just the number please, in %, no unit attached.

{"substance": "FLSTIWNGIKSLF-NH2 [D2]", "tested on": "pig erythrocytes", "units of measure": "%", "percentage of hemolysis": 64}

Now consider a different substance.
Exercise: Could you share which percentage of hemolysis value was measured for IWSAIWSGIKGLL-NH2 [UyCT5] ?
Solution: 70

---

Reported values of MIC E. coli for individual entries
# Tested on: Escherichia coli (D31)
# experiment summary: Growth inhibition assay (MIC), E. coli
# Type: cell-based
# assay setup: 384-well plates, LB, 37 °C, peptide 0.015–250 µM; growth totally inhibited; average of n ≥ 3; dash = no inhibition
No end group written: not given here.
Just the number please, in µM, no unit attached.

{"substance": "FLSTIWNGIKGLL-NH2 [Uy192]", "MIC E. coli / µM": 15}
{"substance": "GFWGKLWEGVKNAI-NH2 [UyCT1]", "MIC E. coli / µM": 4}
{"substance": "GFWGKLWEGVKSAI-NH2 [Um3]", "MIC E. coli / µM": 15}

Exercise: Could you share which MIC E. coli value was measured for IFKAIWSGIKSLF-NH2 [Um5] ?
Solution: 15

Exercise: Could you share which MIC E. coli value was measured for FPFLKLSLKIPKSAIKSAIKRL-NH2 [D10] ?
Solution: 8

Exercise: Could you share which MIC E. coli value was measured for GFWGKLLEGVKKAI-NH2 [D5] ?
Solution: 15

Exercise: Could you share which MIC E. coli value was measured for IFGAIWSGIKSLF-NH2 [D1] ?
Solution: 8

Exercise: Could you share which MIC E. coli value was measured for FFSALLSGIKSLF-NH2 [Um4] ?
Solution: 8

Exercise: Could you share which MIC E. coli value was measured for ILSAIWSGIKSLF-NH2 [UyCT3] ?
Solution: 8

Exercise: Could you share which MIC E. coli value was measured for GFWGKLWEGVKNAIKKK-NH2 [D11] ?
Solution: 4

Exercise: Could you share which MIC E. coli value was measured for IWSAIWSGIKGLL-NH2 [UyCT5] ?
Solution: 15
